Experiment: soluble fraction after stress (log2 fold change); higher = more stays soluble; pooled small domains, quantitative proteomics;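 note: 20 min heating vs room temperature control held 20 min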
Conditions: stress: 75 degC
MEASUREMENT_LABEL: soluble fraction (log2)

# BIOSEQUENCE, MEASUREMENT_LABEL, OBS_VALUE
measured = [
    ("HMAATGPLTPREAEIARLAAGHLSNRQIAEQLVVSERTVENHLYRIFIKLAVTGRDDLAAALAATEQ", "soluble fraction (log2)", -2.55),
    ("HMASAKTVAQSGTYKFAKTTAIKSSASDAASTVGTYYKGNTVNYNAKVTTNGQTWLRYTSYSGAQYYVKVS", "soluble fraction (log2)", -3.66),
    ("HMVEPDELTEREREVLQFVARGLSNKEIGAALALSPHTIKAHLRSILDKLHLRSRAEAAAWAVRSGLS", "soluble fraction (log2)", -0.344),
    ("HMNIEEAESILKEIKTVLTDKEYEVYTLRAKGFTYQEIASLLNTTTKSVDGALSRIKTKINNIK", "soluble fraction (log2)", -0.674),
    ("HMANVQLAKNLKTLRKKYNYTQQDVSTFLNITRQAYSHYEQALREPDLNTLVHLSRFYQVTLDELI", "soluble fraction (log2)", -4.33),
    ("HMGKFMVQVGAFSRINGAEITRTKYDNLGTHKAIIKNLDGMNRVFLTGFLSEDEARDFIASSNLKGAFIIR", "soluble fraction (log2)", -2.13),
    ("HMSDPTDRLVLEAALKALGEEERQVVLLHAASGLKHREIARDLGLPLSTVLSRYSRALKKLQRYLTEEGVH", "soluble fraction (log2)", -1.2),
    ("HMGEILYSGVLKGGDGPEATKLALEKFLGEANTQVAGRIGVQPETQVIWLSREAVDSAASTLSQHKGNMYV", "soluble fraction (log2)", -0.247),
]
